Assay target: anti-ALFA VHH
Sequence (VHH, as listed by the source): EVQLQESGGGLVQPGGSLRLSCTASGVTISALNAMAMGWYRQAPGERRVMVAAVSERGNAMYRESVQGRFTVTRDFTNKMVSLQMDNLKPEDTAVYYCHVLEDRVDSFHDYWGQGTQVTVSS
Procedure summary: dose-response curve fit (log(agonist) vs. response, variable slope), FIG. 2; assay format not described
Bridge positions count the residues as written; N and C are the ends. Ends that are not written are not given here.
Field: Span. Provide a value for each of the binders that follow.
Answer field: number only, no words.

Name the recorded Span of the binder listed here: Ac-SRLEDELRKRLTE-NH2 (lactam 5-9; SMILES CC(=O)N[C@@H](CO)C(=O)N[C@@H](CCCNC(=N)N)C(=O)N[C@@H](CC(C)C)C(=O)N[C@@H](CCC(=O)O)C(=O)N[C@H]1CC(=O)NCCCC[C@@H](C(=O)N[C@@H](CCCNC(=N)N)C(=O)N[C@@H](CC(C)C)C(=O)N[C@H](C(=O)N[C@@H](CCC(=O)O)C(N)=O)[C@@H](C)O)NC(=O)[C@H](CCCNC(=N)N)NC(=O)[C@H](CC(C)C)NC(=O)[C@H](CCC(=O)O)NC1=O, Cyclic ALFA tag; also called SD15196) [Ac-Ser-Arg-Leu-Glu-(cyclo5)Asp-Glu-Leu-Arg-(cyclo9)Lys-Arg-Leu-Thr-Glu-NH2] 1.41

Item Ac-SRLEEELKRRLTE-NH2 (lactam 5-8; SMILES CC(=O)N[C@@H](CO)C(=O)N[C@@H](CCCNC(=N)N)C(=O)N[C@@H](CC(C)C)C(=O)N[C@@H](CCC(=O)O)C(=O)N[C@H]1CCC(=O)NCCCC[C@@H](C(=O)N[C@@H](CCCNC(=N)N)C(=O)N[C@@H](CCCNC(=N)N)C(=O)N[C@@H](CC(C)C)C(=O)N[C@H](C(=O)N[C@@H](CCC(=O)O)C(N)=O)[C@@H](C)O)NC(=O)[C@H](CC(C)C)NC(=O)[C@H](CCC(=O)O)NC1=O, Cyclic ALFA tag; also called SD15192) [Ac-Ser-Arg-Leu-Glu-(cyclo5)Glu-Glu-Leu-(cyclo8)Lys-Arg-Arg-Leu-Thr-Glu-NH2] : provide Span 1.2

Give the reported Span for this binder. SRLEEELRKRLTE (lactam 5-9; not fully specified (N-terminus, C-terminus), also called SD15194) [Ac-Ser-Arg-Leu-Glu-(cyclo5)Glu-Glu-Leu-Arg-(cyclo9)Lys-Arg-Leu-Thr-Glu-NH2] 1.27
